EXPERIMENTAL TARGET: Neu5Ac(a2-3)Gal(b1-4)[Fuc(a1-3)]GlcNAc(b1-6)[Neu5Ac(a2-3)Gal(b1-3)]GalNAc
TEST DESCRIPTION: glycan array binding signal (z-score within array); higher = stronger binding
CONDITION INFO: glycan notation: IUPAC condensed, linker removed
This is one part of a sample in which the strongest signals are shown more often than they occur.
Below, each entry is listed alongside its reported glycan array binding signal (z-score).
I'd appreciate a reply containing only the number, no unit.

Past entries and their recorded results:
BINDER	RECORDED ENDPOINT	VAL
LSL-150 (Laetiporus sulphureus), Q7Z8V1 (protein) MTDIYIPPEGLYFRLLGFASRQVIFARNSPSPDVGLSPVNDQATDQYFSLIYGTGEHAGLYAIKSKATGKVLFSRRPAEPYVGQIDGDGRYPDNWFKIEPGKTYLSKYFRLVQPSTGTALVSRTHLQPYFWNHPQTEVFDDQYFTFLFEDHHHHHH	glycan array binding signal (z-score)	-0.203
SJA (Sophora japonica) (protein) FLGLFNSGGYSSSYQIVAVEFDTYINEWDPKTRHIGIDINSINSTKTVTWGWENGEVAIVLISYKAATETLTVSLTYPSSQTSYILSAAVDLKSILPEWVRIGF	glycan array binding signal (z-score)	-0.056
MAL-II (Maackia amurensis), P93248 (protein) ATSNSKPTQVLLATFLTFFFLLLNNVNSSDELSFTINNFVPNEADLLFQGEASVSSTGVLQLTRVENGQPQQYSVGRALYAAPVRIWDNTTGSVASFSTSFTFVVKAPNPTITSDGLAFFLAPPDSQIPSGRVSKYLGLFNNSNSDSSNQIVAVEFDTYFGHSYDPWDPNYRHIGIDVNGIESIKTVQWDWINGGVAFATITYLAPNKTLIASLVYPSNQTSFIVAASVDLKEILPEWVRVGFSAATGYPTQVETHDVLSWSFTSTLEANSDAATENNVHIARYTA	glycan array binding signal (z-score)	0.889
CC1G-11630 (Coprinopsis cinerea), A8P462 (protein) MTTEAKIKLKAVVYWELVFDYDNSSNTGEITQSYTVKISQTSTRSTFASEVSTTTIDTLTKNNQEVDVGASYGAISANVSASWEHSEEVNNMLEKTTQTSTEDTYTVETEETRSYTIGPGGMLSLFQKHFSGPGMHVAFDVFTTDLELAKERTEIDIDVDVEAIRFVREIRVVYTDIMSEAPGDHVREINGKNPDINYGFNGKFVWLVPEQTRKTAQALTNVEFVSQAESDDRYWDLAAGAGGSNRYLIPVYDTNNKDKIYELALWRSDSYITHDKVKAAGWSGTTGDINSGRGGTYLNLVWKTRHAY	glycan array binding signal (z-score)	0.186
EPL1 (Trichoderma atroviride), A0PCX2 (protein) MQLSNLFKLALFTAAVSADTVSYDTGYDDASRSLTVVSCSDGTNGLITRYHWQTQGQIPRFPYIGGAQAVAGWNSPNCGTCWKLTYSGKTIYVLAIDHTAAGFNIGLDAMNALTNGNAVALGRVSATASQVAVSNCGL	glycan array binding signal (z-score)	0.767

Now look at this one.
# input Entry Actd5 (Actinidia), P84527 (protein) ISSCNGPCRDLNDCDGQLICIKGKCNDDPQVGTHICRGTTHSHQPGGCKPSGTLTCRGKSYPTYDCSPPVTSSTPAKLTNNDFSEGGDDGGPSECDESYHNNNERIVALSTGWYNGGSRCGKMIRITASNGKSVSAKVVDECDSRHGCDKEHAGQPPCRNNIVDGSNAVWSALGLDKNVGVVDITWSMA has what glycan array binding signal (z-score)?
# output -0.33

The origin of these recorded values is the supplement of paper PMC8728848.
